These measurements were taken from patent US20100267561A1.

Task for the reader: assign each of the following molecules its reported Plant response rating, Foxtail, Giant.
# Test system: giant foxtail (Setaria faberii)
# Test Details: Test B pre-/postemergence plant response
# Format: in vivo
# Test Conditions: Preemergence, 62 g ai/ha; scale 0 to 100
Give bare numbers.

Please review the entries below; each comes with its answer.
{"Structure": "CCc1cc(-c2ccc(Cl)cc2)nn1-c1c(OS(C)(=O)=O)cnn(C)c1=O", "Assay Value": 100}
{"Structure": "CCc1cc(-c2ccc(Cl)cc2)nn1-c1c(OC(=O)OC(C)C)cnn(C)c1=O", "Assay Value": 98}
{"Structure": "Cc1cc(-c2ccc(Cl)cc2)nn1-c1c(OS(=O)(=O)c2ccccc2[N+](=O)[O-])cnn(C)c1=O", "Assay Value": 100}
{"Structure": "Cn1ncc(O)c(-c2nn(-c3ccc(Cl)cc3)cc2Cl)c1=O", "Assay Value": 100}
{"Structure": "Cn1ncc(O)c(-c2nn(-c3ccc(Cl)cc3)cc2Br)c1=O", "Assay Value": 100}

Note: attention shifts to another entry.
[in] Name the value of Plant response rating, Foxtail, Giant reported for "CCc1cc(-c2ccc(Cl)c(Cl)c2)nn1-c1c(O)cnn(C)c1=O" when tested on giant foxtail (Setaria faberii).
[out] 100
